# system tested: furin, P09958;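 also: purified furin at 1:10 enzyme:substrate in 50 mM HEPES pH 7.5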
# Sequence (P09958 whole entry): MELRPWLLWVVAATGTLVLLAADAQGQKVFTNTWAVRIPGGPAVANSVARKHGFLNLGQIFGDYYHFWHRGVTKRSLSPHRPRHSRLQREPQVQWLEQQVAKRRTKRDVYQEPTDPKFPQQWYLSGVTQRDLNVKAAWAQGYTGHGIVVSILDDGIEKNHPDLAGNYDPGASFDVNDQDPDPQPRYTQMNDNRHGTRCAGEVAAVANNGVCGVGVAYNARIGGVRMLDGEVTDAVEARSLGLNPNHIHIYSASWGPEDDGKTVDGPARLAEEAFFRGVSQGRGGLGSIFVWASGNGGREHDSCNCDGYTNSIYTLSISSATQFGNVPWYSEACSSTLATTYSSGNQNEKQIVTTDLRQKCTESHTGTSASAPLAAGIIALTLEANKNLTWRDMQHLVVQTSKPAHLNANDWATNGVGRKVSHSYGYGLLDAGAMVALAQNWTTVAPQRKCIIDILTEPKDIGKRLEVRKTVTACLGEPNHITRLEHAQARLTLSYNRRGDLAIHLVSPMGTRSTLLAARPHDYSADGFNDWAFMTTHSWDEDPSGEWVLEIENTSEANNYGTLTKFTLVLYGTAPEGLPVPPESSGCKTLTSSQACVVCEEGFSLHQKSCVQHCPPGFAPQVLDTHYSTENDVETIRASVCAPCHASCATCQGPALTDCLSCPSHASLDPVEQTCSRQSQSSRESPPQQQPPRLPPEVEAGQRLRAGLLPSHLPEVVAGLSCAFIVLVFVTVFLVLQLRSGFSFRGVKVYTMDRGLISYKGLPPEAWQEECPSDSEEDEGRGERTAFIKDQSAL
# assay procedure: furin cleavage Z-score vs untreated control; higher = more cleavage, active = 3.5 or more, inactive = 1 or less, 8 variable residues between constant flanks
# condition label: 30 min
The other results are listed elsewhere or left out. How many sequences the whole screen found active is unknown.
Assign a class; possible classes are active, inactive

Before answering, review these 2 worked examples.
>>> category_label("CAEPHRARRGAGNASASA [FS-1451]")
"active"
>>> category_label("CAVHHRPKRGAGNASASA [FS-309]")
"active"

Identify the outcome logged in this assay for the sequence shown: CAILHRQKRGAGNASASA [FS-665]
active

Dear all, I need the recorded test outcome for CARKSRSPHNAGNASASA [FS-3224] , thank you.
active

Field: outcome | Entry: CAQRRRARRGAGNASASA [FS-850]
inactive

# lookup: test call for CARKKRSEYYAGNASASA [FS-1957]
active
